What R0 was measured for each of the following?
Target: T1, mouse MuSK (mouse, UniProt Q61006 22-494, limits assumed)
T1 construct: Coated on ELISA plates or on the Biacore chip; also called full length mouse MuSK; mouse MuSK (in house produced in HEK293 cells)
T1 sequence (looked up): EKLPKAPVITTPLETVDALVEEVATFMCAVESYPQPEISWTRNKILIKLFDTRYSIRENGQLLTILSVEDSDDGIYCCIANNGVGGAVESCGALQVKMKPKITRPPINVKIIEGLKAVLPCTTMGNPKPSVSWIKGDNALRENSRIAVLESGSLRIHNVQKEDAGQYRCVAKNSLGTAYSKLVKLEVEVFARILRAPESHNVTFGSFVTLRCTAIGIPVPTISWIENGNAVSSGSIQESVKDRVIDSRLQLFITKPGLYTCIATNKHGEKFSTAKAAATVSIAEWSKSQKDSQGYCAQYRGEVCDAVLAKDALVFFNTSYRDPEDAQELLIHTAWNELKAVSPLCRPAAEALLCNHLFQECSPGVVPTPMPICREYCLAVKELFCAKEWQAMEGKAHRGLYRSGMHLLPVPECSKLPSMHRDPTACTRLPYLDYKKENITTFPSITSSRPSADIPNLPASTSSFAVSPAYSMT
Test: Biacore, MuSK on chip (200RU), 66.7 nM mAb, dissociation pH 7.4
// note: answer is a bare numeric in RU

Identify R0 associated with the binder 3B2g1m1 (antibody, human IgG1, V domains shown, human IgG1-LALA backbone; produced in HEK293 cells) VH: EVQLLESGGGLVQPGGSLRLSCAASGFTFSDYGMSWVRQAPGKGLEWVSAIPWSGGSTYYKESVKGRFTISRDNSKNTLYLQMNSLRAEDTAVYYCAKRSGRIAFGALDAWGQGTLVTVSS VL: QTVVTQEPSFSVSPGGTVTLTCGLSSGSVTSSNYPDWYQQTPGQAPRTLIYSTDSRHSGVPDRFSGSILGNKAALTITGAQADDESDYYCGLYMYSGSKNYVFGGGTKLTVL 193

Fill in reported R0 for this entry: 3B2 (antibody, V domains shown, human IgG1 with the LALA mutations (L234A, L235A); produced in HEK293 cells; also called 3B2 mAb; parental 3B2 Ab) VH: ELQLVESGGGLVQPGGSLRLSCAASGFTFDDYGMSWVRQAPGKGLEWVSAIPWNGGSTYYKESVKGRFTISRDNAKKTLYLQMNSLKSEDTAVYYCAKRSGRIAFGALDAWGQGTLVTVSS VL: QAVVTQEPSLSVSPGGTVTLTCGLSSGSVTSSNYPDWYQQTPGQAPRGLIYSTDSRHSGVPSRFSGSISGNKAALTITGAQSEDEADYYCGLYMYSGSKNYVFGGGTKLTVL 195

Answer with the recorded R0 for the binder listed here: 3B2g2m1 (antibody, human IgG1, V domains shown, human IgG1-LALA backbone; produced in HEK293 cells; also called MuSK agonist antibody 3B2g2m1; MuSK-mAb 3B2g2m1) VH: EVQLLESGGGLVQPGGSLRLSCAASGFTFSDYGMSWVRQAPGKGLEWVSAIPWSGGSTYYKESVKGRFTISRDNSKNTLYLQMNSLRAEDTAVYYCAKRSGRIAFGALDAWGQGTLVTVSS VL: QTVVTQEPSFSVSPGGTVTLTCGLSSGSVTSSNYPDWYQQTPGQAPRTLIYSTDSRHSGVPDRFSGSILGNKAALTITGAQADDESDYYCGLYSYSGSKNYVFGGGTKLTVL 195

Answer with the recorded R0 for the binder listed here: 3B2g2m2 (antibody, human IgG1, V domains shown, human IgG1-LALA backbone; produced in HEK293 cells) VH: EVQLLESGGGLVQPGGSLRLSCAASGFTFSDYGMSWVRQAPGKGLEWVSAIPGSGGSTYYKESVKGRFTISRDNSKNTLYLQMNSLRAEDTAVYYCAKRSGRIAFGALDAWGQGTLVTVSS VL: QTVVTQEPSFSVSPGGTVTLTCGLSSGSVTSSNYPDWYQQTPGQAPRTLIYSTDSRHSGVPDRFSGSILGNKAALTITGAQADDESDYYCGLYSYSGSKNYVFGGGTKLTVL 158

// fetch R0 given entry 3B2g2m4 (antibody, human IgG1, V domains shown, human IgG1-LALA backbone; produced in HEK293 cells) VH: EVQLLESGGGLVQPGGSLRLSCAASGFTFSDYGMSWVRQAPGKGLEWVSAIPWQGGSTYYKESVKGRFTISRDNSKNTLYLQMNSLRAEDTAVYYCAKRSGRIAFGALDAWGQGTLVTVSS VL: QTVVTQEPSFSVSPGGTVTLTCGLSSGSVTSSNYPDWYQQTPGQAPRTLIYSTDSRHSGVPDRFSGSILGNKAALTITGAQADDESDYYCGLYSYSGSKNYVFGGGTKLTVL 193

Using the record for 3B2g1m4 (antibody, human IgG1, V domains shown, human IgG1-LALA backbone; produced in HEK293 cells) VH: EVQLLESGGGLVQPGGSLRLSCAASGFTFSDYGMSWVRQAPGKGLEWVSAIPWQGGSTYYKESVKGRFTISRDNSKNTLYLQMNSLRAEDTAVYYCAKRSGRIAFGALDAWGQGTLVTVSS VL: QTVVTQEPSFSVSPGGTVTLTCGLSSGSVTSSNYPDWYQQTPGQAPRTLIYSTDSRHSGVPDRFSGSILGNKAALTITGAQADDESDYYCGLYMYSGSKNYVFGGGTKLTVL , state its measured R0. 192

Note down R0 recorded for 3B2g1m2 (antibody, human IgG1, V domains shown, human IgG1-LALA backbone; produced in HEK293 cells) VH: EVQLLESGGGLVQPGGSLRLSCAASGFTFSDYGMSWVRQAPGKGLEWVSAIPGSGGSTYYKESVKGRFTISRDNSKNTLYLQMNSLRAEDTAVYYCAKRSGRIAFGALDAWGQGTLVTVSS VL: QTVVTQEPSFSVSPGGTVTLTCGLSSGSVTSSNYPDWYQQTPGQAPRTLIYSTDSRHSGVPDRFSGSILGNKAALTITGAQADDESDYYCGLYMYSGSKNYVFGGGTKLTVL 155
